Reference source for all entries: ChEMBL document CHEMBL1135445

molecular target: Delta-type opioid receptor (Homo sapiens, UniProt P41143); experiment: Binding affinity towards recombinant humanOpioid receptor delta 1 transfected in to CHO cells for the displacement of [3H]Cl-DPDPE (delta); format: cell-based
Sequence (P41143 whole entry): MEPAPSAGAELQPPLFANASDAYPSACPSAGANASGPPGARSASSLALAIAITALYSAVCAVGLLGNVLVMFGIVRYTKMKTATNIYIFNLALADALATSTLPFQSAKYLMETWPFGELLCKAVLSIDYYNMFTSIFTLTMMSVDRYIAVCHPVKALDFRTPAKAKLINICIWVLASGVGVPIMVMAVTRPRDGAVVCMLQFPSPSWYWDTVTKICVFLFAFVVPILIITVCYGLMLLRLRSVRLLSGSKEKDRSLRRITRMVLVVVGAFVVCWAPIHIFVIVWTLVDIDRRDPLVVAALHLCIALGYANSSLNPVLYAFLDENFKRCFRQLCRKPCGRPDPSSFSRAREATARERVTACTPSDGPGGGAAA
measured.parameter: Ki (nM)
Give just the number in nM; leave the unit off.

Param item = Oc1ccc2c3c1O[C@H]1c4c(c(-c5ccccc5)cn4Cc4ccccc4)C[C@@]4(O)C(C2)N(CC2CC2)CC[C@]314 ; retrieve measured Ki.
13.7

----------
target: Kappa-type opioid receptor (Homo sapiens, UniProt P41145); assay: Binding affinity towards recombinant human Opioid receptor kappa 1 transfected in to CHO cells for the displacement of [3H]U-69593; type: cell-based
Sequence (P41145 whole entry): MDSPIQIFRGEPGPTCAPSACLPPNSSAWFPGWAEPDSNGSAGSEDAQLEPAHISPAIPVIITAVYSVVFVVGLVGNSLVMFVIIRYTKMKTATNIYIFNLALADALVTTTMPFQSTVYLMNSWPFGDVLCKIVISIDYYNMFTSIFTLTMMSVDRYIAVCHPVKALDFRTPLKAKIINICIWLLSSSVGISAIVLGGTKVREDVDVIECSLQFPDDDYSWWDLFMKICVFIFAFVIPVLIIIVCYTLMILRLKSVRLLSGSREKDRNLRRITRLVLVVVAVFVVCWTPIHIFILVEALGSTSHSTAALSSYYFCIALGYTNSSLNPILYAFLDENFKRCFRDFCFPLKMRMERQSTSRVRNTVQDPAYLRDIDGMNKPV
measured.parameter: Ki (µM)
Give just the number in µM; leave the unit off.

Query Ki on Kappa-type opioid receptor (Homo sapiens, UniProt P41145) for CN1CC[C@]23c4c5ccc(O)c4O[C@H]2c2c(c(-c4ccccc4)cn2Cc2ccccc2)C[C@@]3(O)C1C5
0.187

----------
molecular target: Mu-type opioid receptor (Homo sapiens); test: The partial agonist activity tested in [35S]-GTP-gamma S Recombinant Human Opioid receptor mu 1 transfected in to CHO cells for the displacement of [3H]-DAMGO (mu)
measured.parameter: EC50 (nM)
Give just the number in nM; leave the unit off.

Param item = Cc1ccc(-c2cn(Cc3ccccc3)c3c2C[C@@]2(O)C4Cc5ccc(O)c6c5[C@@]2(CCN4CC2CC2)[C@H]3O6)cc1 ; retrieve measured EC50.
1360

----------
Examples of molecules with documented Ke follow.
target: Mu-type opioid receptor (Homo sapiens); experiment: The antagonistic activity tested in [35S]-GTP-gamma S Recombinant Human Opioid receptor mu 1 transfected in to CHO cells for the displacement of [3H]DAMGO (mu); assay type: functional, cell-based
Give just the number in nM; leave the unit off.

Query Ke on Mu-type opioid receptor (Homo sapiens) for Cc1c(-c2ccccc2)c2c(n1Cc1ccccc1)[C@@H]1Oc3c(O)ccc4c3[C@@]13CCN(CC1CC1)C(C4)[C@]3(O)C2
17.7

Query Ke on Mu-type opioid receptor (Homo sapiens) for CN1CC[C@]23c4c5ccc(O)c4O[C@H]2c2c(c(-c4ccccc4)cn2Cc2ccccc2)C[C@@]3(O)C1C5
14.1

Query Ke on Mu-type opioid receptor (Homo sapiens) for CCCN1CC[C@]23c4c5ccc(O)c4O[C@H]2c2c(c(-c4ccccc4)cn2Cc2ccccc2)C[C@@]3(O)C1C5
45.3

Query Ke on Mu-type opioid receptor (Homo sapiens) for Oc1ccc2c3c1O[C@H]1c4[nH]c5ccccc5c4C[C@@]4(O)[C@@H](C2)N(CC2CC2)CC[C@]314
4.26

----------
Examples of compounds with documented pKi follow.
target: Mu-type opioid receptor (Homo sapiens); experiment: Binding affinity towards recombinant human Opioid receptor mu 1 transfected in to CHO cells for the displacement of [3H]DAMGO (mu); type: cell-based
Keep in mind that pKi stands for -log10 of concentration in molar terms.

Param item = CN1CC[C@]23c4c5ccc(O)c4O[C@H]2c2c(c(-c4ccccc4)cn2Cc2ccccc2)C[C@@]3(O)C1C5 ; retrieve measured pKi.
7.31

Param item = Cc1c(-c2ccccc2)c2c(n1Cc1ccccc1)[C@@H]1Oc3c(O)ccc4c3[C@@]13CCN(CC1CC1)C(C4)[C@]3(O)C2 ; retrieve measured pKi.
7.28

----------
Examples of molecules with documented log10(Ki) follow.
target: Delta-type opioid receptor (Homo sapiens, UniProt P41143); experiment: Binding affinity towards recombinant human Opioid receptor delta 1 transfected in to CHO cells for the displacement of [3H]Cl-DPDPE (delta); assay type: cell-based
Scale: decimal log of Ki, Ki in nM.

// known answers, use as guide
{"record.smiles": "Cc1ccc(-c2cn(Cc3ccccc3)c3c2C[C@@]2(O)C4Cc5ccc(O)c6c5[C@@]2(CCN4CC2CC2)[C@H]3O6)cc1", "log10(Ki)": 1.37}
{"record.smiles": "Cc1c(-c2ccccc2)c2c(n1Cc1ccccc1)[C@@H]1Oc3c(O)ccc4c3[C@@]13CCN(CC1CC1)C(C4)[C@]3(O)C2", "log10(Ki)": 1.24}
{"record.smiles": "CCCN1CC[C@]23c4c5ccc(O)c4O[C@H]2c2c(c(-c4ccccc4)cn2Cc2ccccc2)C[C@@]3(O)C1C5", "log10(Ki)": 1.33}

Query log10(Ki) on Delta-type opioid receptor (Homo sapiens, UniProt P41143) for COc1ccc2c3c1O[C@H]1c4c(c(-c5ccccc5)cn4Cc4ccccc4)C[C@@]4(O)C(C2)N(C)CC[C@]314
2.51

Query log10(Ki) on Delta-type opioid receptor (Homo sapiens, UniProt P41143) for CN1CC[C@]23c4c5ccc(O)c4O[C@H]2c2c(c(-c4ccccc4)cn2Cc2ccccc2)C[C@@]3(O)C1C5
2.06

----------
biological target: Delta-type opioid receptor (Homo sapiens); assay: Partial agonist activity tested in [35S]GTP-gamma-S, Recombinant Human Opioid receptor delta 1 transfected in to CHO cells for the displacement of [3H]Cl-DPDPE (delta); format: functional, cell-based
measured.parameter: EC50 (nM)
Give just the number in nM; leave the unit off.

Param item = CN1CC[C@]23c4c5ccc(O)c4O[C@H]2c2c(c(-c4ccccc4)cn2Cc2ccccc2)C[C@@]3(O)C1C5 ; retrieve measured EC50.
55.2

----------
target: Kappa-type opioid receptor (Homo sapiens); experiment: The antagonistic activity of compound was tested in [35S]GTP-gamma-S, Recombinant Human Opioid receptor kappa 1 transfected in to CHO cells for the displacement of [3H]U-69593; format: functional, cell-based
measured.parameter: Ke (nM)
Give just the number in nM; leave the unit off.

// known answers, use as guide
{"record.smiles": "Oc1ccc2c3c1O[C@H]1c4[nH]c5ccccc5c4C[C@@]4(O)[C@@H](C2)N(CC2CC2)CC[C@]314", "Ke / nM": 4.95}
{"record.smiles": "CN1CC[C@]23c4c5ccc(O)c4O[C@H]2c2c(c(-c4ccccc4)cn2Cc2ccccc2)C[C@@]3(O)C1C5", "Ke / nM": 1160}

Param item = Cc1ccc(-c2cn(Cc3ccccc3)c3c2C[C@@]2(O)C4Cc5ccc(O)c6c5[C@@]2(CCN4CC2CC2)[C@H]3O6)cc1 ; retrieve measured Ke.
61.1

Param item = CCCN1CC[C@]23c4c5ccc(O)c4O[C@H]2c2c(c(-c4ccccc4)cn2Cc2ccccc2)C[C@@]3(O)C1C5 ; retrieve measured Ke.
210

Param item = Cc1c(-c2ccccc2)c2c(n1Cc1ccccc1)[C@@H]1Oc3c(O)ccc4c3[C@@]13CCN(CC1CC1)C(C4)[C@]3(O)C2 ; retrieve measured Ke.
306

----------
target: Kappa-type opioid receptor (Homo sapiens); experiment: Binding affinity towards recombinant human Opioid receptor kappa 1 transfected in to CHO cells for the displacement of […]; assay type: cell-based
Examples of molecules with documented Ki follow.
Give just the number in nM; leave the unit off.

// known answers, use as guide
{"record.smiles": "Cc1c(-c2ccccc2)c2c(n1Cc1ccccc1)[C@@H]1Oc3c(O)ccc4c3[C@@]13CCN(CC1CC1)C(C4)[C@]3(O)C2", "value.units": "nM", "Ki": 183}
{"record.smiles": "Oc1ccc2c3c1O[C@H]1c4c(c(-c5ccccc5)cn4Cc4ccccc4)C[C@@]4(O)C(C2)N(CC2CC2)CC[C@]314", "value.units": "nM", "Ki": 120}
{"record.smiles": "CCCN1CC[C@]23c4c5ccc(O)c4O[C@H]2c2c(c(-c4ccccc4)cn2Cc2ccccc2)C[C@@]3(O)C1C5", "value.units": "nM", "Ki": 191}

Note: attention shifts to another entry.
Query Ki on Kappa-type opioid receptor (Homo sapiens) for Cc1ccc(-c2cn(Cc3ccccc3)c3c2C[C@@]2(O)C4Cc5ccc(O)c6c5[C@@]2(CCN4CC2CC2)[C@H]3O6)cc1
108

----------
target: Mu-type opioid receptor (Homo sapiens, UniProt P35372); experiment: Binding affinity towards recombinant human Opioid receptor mu 1 transfected in to CHO cells for the displacement of [3H]DAMGO (mu)
Sequence (P35372 whole entry): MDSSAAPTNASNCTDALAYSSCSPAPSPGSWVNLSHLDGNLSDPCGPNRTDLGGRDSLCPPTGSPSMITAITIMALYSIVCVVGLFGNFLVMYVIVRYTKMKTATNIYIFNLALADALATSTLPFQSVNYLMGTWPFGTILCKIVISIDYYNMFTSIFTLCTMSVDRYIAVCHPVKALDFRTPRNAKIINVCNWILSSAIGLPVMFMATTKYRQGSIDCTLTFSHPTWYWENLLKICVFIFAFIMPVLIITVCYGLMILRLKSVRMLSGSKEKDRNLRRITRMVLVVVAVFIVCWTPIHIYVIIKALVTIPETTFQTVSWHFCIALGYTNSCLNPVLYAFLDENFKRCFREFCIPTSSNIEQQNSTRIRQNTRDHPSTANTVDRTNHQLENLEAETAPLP
measured.parameter: Ki (nM)
Give just the number in nM; leave the unit off.

// known answers, use as guide
{"record.smiles": "Cc1ccc(-c2cn(Cc3ccccc3)c3c2C[C@@]2(O)C4Cc5ccc(O)c6c5[C@@]2(CCN4CC2CC2)[C@H]3O6)cc1", "system.under.test": "Mu-type opioid receptor (Homo sapiens, UniProt P35372)", "measurement": 77.9}
{"record.smiles": "CCCN1CC[C@]23c4c5ccc(O)c4O[C@H]2c2c(c(-c4ccccc4)cn2Cc2ccccc2)C[C@@]3(O)C1C5", "system.under.test": "Mu-type opioid receptor (Homo sapiens, UniProt P35372)", "measurement": 40.1}

Note: attention shifts to another entry.
Param item = Oc1ccc2c3c1O[C@H]1c4c(c(-c5ccccc5)cn4Cc4ccccc4)C[C@@]4(O)C(C2)N(CC2CC2)CC[C@]314 ; retrieve measured Ki.
16.8
